target: recombinant human IL-17AA (Homo sapiens); test: IL-6 release from NHDF cells, IL-17AA plus TNF-α stimulation; format: cell-based; conditions: NHDF cells, IL-17AA 30 pM plus TNF-α 6 pM, 24 hours, IL-6 by ELISA; read-out: IL17AA + TNF IC50 IL-6
Sequence (Q16552 24-155): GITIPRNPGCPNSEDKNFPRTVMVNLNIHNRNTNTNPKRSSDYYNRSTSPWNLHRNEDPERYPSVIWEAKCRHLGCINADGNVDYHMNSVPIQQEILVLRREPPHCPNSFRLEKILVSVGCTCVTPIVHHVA
Documented IC50 across a set of compounds
Readout Label: IC50 (nM)

                                   compound  unit_spec  numeric_value
0  Cc1cc[n+]([O-])c(C(F)F)c1-c1ccc(NC(=O)[C@@H](NC(=O)c2ccnn2C)C2CCCCC2)cc1 [Example 104]         nM            139
1  Cc1cc(-c2ccc(NC(=O)[C@@H](NC(=O)c3ccnn3C)C3CCCCC3)cc2)c(C)[n+]([O-])c1 [Example 113]         nM             38
2  CCn1nccc1C(=O)N[C@H](C(=O)Nc1ccc(-c2c(Cl)cc[n+]([O-])c2C)cc1)C1CCC(F)(F)CC1 (single isomer, unassigned) [Example 13a]         nM             11
3  Cc1cc[n+]([O-])c(C)c1-c1ccc(NC(=O)[C@@H](NC(=O)c2ccnn2C)[C@H]2CC=C(F)CC2)cc1 (single isomer, unassigned) [Example 12a]         nM             17
4  Cc1cc[n+]([O-])c(C)c1-c1ccc(NC(=O)[C@@H](NC(=O)c2ccnn2C(C)C)C2CCCCC2)cc1F [Example 96]         nM              7
5  Cc1cc[n+]([O-])c(C)c1-c1ccc(NC(=O)C(NC(=O)c2ccnn2C)C2CCC(C)CC2)cc1 (stereo not drawn) [Example 3]         nM              7
